Molecular target: Recombinant human KIF18A (1-467His-tagged) protein (Homo sapiens, UniProt Q8NI77)
Construct: Recombinant human KIF18A (1-467His-tagged) protein; His
Sequence (Q8NI77 1-467): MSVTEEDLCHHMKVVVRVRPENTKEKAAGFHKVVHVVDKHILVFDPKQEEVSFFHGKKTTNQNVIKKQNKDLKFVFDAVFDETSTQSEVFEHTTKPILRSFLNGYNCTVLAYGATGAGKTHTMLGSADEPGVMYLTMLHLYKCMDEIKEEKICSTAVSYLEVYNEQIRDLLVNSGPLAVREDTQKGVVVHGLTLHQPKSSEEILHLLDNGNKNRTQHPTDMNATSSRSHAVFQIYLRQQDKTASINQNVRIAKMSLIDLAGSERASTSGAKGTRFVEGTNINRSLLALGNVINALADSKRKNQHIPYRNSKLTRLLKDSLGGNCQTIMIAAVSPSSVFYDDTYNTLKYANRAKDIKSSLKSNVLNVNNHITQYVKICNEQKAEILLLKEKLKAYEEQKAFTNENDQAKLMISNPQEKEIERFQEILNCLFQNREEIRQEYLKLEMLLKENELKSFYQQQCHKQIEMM
Sequence (P02550 whole entry partner): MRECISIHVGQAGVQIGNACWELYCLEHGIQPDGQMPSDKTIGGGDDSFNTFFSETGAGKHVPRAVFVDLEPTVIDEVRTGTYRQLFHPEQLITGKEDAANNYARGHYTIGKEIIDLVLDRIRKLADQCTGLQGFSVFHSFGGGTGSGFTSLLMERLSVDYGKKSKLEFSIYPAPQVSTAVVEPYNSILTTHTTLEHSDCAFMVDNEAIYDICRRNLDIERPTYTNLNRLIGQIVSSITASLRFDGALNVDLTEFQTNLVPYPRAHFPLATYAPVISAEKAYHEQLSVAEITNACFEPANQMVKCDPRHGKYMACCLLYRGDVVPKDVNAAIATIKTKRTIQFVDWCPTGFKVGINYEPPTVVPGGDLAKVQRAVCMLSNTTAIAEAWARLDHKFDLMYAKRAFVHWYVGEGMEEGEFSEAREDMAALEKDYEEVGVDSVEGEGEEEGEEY
Sequence (P02554 whole entry partner): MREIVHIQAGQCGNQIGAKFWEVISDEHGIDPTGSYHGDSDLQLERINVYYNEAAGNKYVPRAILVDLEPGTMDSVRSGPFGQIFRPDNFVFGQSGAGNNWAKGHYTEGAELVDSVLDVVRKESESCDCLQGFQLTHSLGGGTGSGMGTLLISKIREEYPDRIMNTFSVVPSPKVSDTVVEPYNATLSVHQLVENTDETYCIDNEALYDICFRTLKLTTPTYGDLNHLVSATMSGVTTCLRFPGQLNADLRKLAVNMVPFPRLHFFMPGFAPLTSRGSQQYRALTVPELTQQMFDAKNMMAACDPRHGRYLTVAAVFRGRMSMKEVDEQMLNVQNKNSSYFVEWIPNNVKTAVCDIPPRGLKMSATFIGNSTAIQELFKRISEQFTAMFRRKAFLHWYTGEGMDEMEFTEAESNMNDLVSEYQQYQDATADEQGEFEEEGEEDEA
Assay: KIF18A enzyme assay (microtubule-stimulated ATPase activity, ADP-Glo)
Conditions: 30 nM KIF18A, 75 μM ATP, 30 μg/mL pig microtubules; read-out: Inhibitory activity against KIF18A IC50
Experimental: In Vitro Assay of the Compounds of the Present Invention for Inhibiting Enzymatic Activity of KIF18A KIF18A enzyme assay: The enzymatic activity of KIF18A after treatment with the compounds was measured by an assay of microtubule-stimulated ATPase activity. ADP generated from the ATPase reaction was measured in this assay. […] Luminescence was read using a microplate reader and compared with that of the DMSO group, and then the inhibition percentages and IC50 values of the compounds were calculated.
pIC50: −log10 of the molar value.
quantity-name: pIC50

Example results:
| compound | pIC50 |
| --- | --- |
| C[C@@H]1CN(c2cc(C(=O)Nc3ccc(NS(=O)(=O)[C@H](C)CO)cc3N3CCC4(CC3)CC4)ccc2[N+](=O)[O-])CCO1 [Compound 48] | 6.30 to 7.00 |
| COc1ccc(NC(=O)c2ccc(NS(=O)(=O)CCO)cc2N2CCC3(CC2)CC3)nc1N1CCC(F)(F)CC1 [Compound 257] | ≥ 7.00 |
| COc1ccc(C(=O)Nc2cnc(NS(=O)(=O)CCO)cc2N2CCC3(CC2)CC3)nc1N1CCC2(CC2)C1 [Compound 358] | ≥ 7.00 |

stdin: State the recorded pIC50 for this entry: COc1ccc(NC(=O)c2ccc(NS(=O)(=O)CCO)cc2N2CCC3(CC2)CC3)nc1N1CCO[C@H](C)C1 [Compound 258]
stdout: ≥ 7.00

stdin: State the recorded pIC50 for this entry: COc1ccc(C(=O)Nc2ccc(NS(=O)(=O)CCO)cc2N2CCC3(CC2)CC3)nc1N1CC2CC2C1 (stereo not shown) [Compound 330]
stdout: ≥ 7.00

stdin: State the recorded pIC50 for this entry: COc1ccc(C(=O)Nc2cnc(NS(=O)(=O)[C@H](C)CO)cc2N2CCC3(CC2)CC3)nc1N1CCO[C@H](C)C1 [Compound 384]
stdout: ≥ 7.00

stdin: State the recorded pIC50 for this entry: O=C(Nc1ccc([N+](=O)[O-])c(N2CCC3(CC3)C2)n1)c1ccc(NS(=O)(=O)CCO)cc1N1CCC2(CC1)CC2 [Compound 70]
stdout: ≥ 7.00

----------
molecular target: Recombinant human KIF18A (1-467His-tagged) protein (Homo sapiens, UniProt Q8NI77); construct: Recombinant human KIF18A (1-467His-tagged) protein; His; assay: KIF18A enzyme assay (microtubule-stimulated ATPase activity, ADP-Glo); details: 30 nM KIF18A, 75 μM ATP, 30 μg/mL pig microtubules; read-out: Inhibitory activity against KIF18A IC50
pIC50: −log10 of the molar value.
quantity-name: pIC50

| compound | tested-system | pIC50 |
| --- | --- | --- |
| C[C@@H]1CN(c2cc(C(=O)Nc3ccc(NS(=O)(=O)[C@@H](C)CO)cc3N3CCC4(CC3)CC4)ccc2[N+](=O)[O-])CCO1 [Compound 47] | Recombinant human KIF18A (1-467His-tagged) protein (Homo sapiens, UniProt Q8NI77) | 6.30 to 7.00 |
| C[C@@H]1CN(c2cc(C(=O)Nc3ccc(NS(=O)(=O)[C@H](C)CO)cc3N3CCC4(CC3)CC4)ccc2OCF)CCO1 [Compound 528] | Recombinant human KIF18A (1-467His-tagged) protein (Homo sapiens, UniProt Q8NI77) | ≥ 7.00 |
| C[C@H](CO)S(=O)(=O)Nc1cc(N2CCC3(CC2)CC3)c(C(=O)Nc2ccc(OCF)c(N3CCC(F)(F)CC3)c2)cn1 [Compound 462] | Recombinant human KIF18A (1-467His-tagged) protein (Homo sapiens, UniProt Q8NI77) | ≥ 7.00 |

stdin: State the recorded pIC50 for this entry: C[C@@H]1CN(c2cc(NC(=O)c3cnc(NS(=O)(=O)CCO)cc3N3CCC4(CC3)CC4)ccc2OCF)CCO1 [Compound 450]
stdout: ≥ 7.00

stdin: State the recorded pIC50 for this entry: C[C@H](CO)NS(=O)(=O)c1ccc(NC(=O)c2ccc([N+](=O)[O-])c(N3CCC(F)(F)CC3)c2)c(N2CCC3(CC2)CC3)c1 [Compound 62]
stdout: 6.30 to 7.00

stdin: State the recorded pIC50 for this entry: O=C(Nc1cnc(S(=O)(=O)NCCO)cc1N1CCC2(CC1)CC2)c1ccc([N+](=O)[O-])c(OC2CCC2)n1 [Compound 247]
stdout: 6.30 to 7.00

stdin: State the recorded pIC50 for this entry: CSc1ccc(NC(=O)c2ccc(NS(=O)(=O)[C@@H](C)CO)cc2N2CCC3(CC2)CC3)cc1N1CCO[C@H](C)C1 [Compound 591]
stdout: ≥ 7.00

----------
biological target: Recombinant human KIF18A (1-467His-tagged) protein (Homo sapiens); construct: Recombinant human KIF18A (1-467His-tagged) protein; His; assay: KIF18A enzyme assay (microtubule-stimulated ATPase activity, ADP-Glo); conditions: 30 nM KIF18A, 75 μM ATP, 30 μg/mL pig microtubules; read-out: Inhibitory activity against KIF18A IC50
quantity-name: IC50

Example results:
| compound | IC50 |
| --- | --- |
| O=C(Nc1ccc([N+](=O)[O-])c(N2CCC(F)(F)CC2)c1)c1cnc(S(=O)(=O)NCCO)cc1N1CCC2(CC1)CC2 [Compound 113] | ≤ 100 nM |
| O=C(Nc1ccc(OCF)c(N2CCC(F)(F)CC2)n1)c1cnc(S(=O)(=O)NCCO)cc1N1CCC2(CC1)CC2 [Compound 497] | ≤ 100 nM |
| C[C@@H](CO)S(=O)(=O)Nc1ccc(C(=O)Nc2ccc(OCF)c(N3CCC(F)(F)CC3)c2)c(N2CCC3(CC2)CC3)c1 [Compound 397] | ≤ 100 nM |
| CSc1ccc(NC(=O)c2cnc(NS(=O)(=O)CCO)cc2N2CCC3(CC2)CC3)nc1N1CC2CC2C1 (stereo not drawn) [Compound 634] | ≤ 100 nM |
| O=C(Nc1ccc(S(=O)(=O)NCCO)cc1N1CCC2(CC1)CC2)c1ccc(OCF)c(N2CC3CC3C2)n1 (stereo not drawn) [Compound 570] | 100 to 500 nM |

stdin: State the recorded IC50 for this entry: CC1(F)CCN(c2nc(NC(=O)c3cnc(S(=O)(=O)NCCO)cc3N3CCC4(CC3)CC4)ccc2OCF)C1 (stereo not drawn) [Compound 504]
stdout: ≤ 100 nM

stdin: State the recorded IC50 for this entry: C[C@@H](CO)NS(=O)(=O)c1ccc(NC(=O)c2ccc([N+](=O)[O-])c(N3CCC(F)(F)CC3)c2)c(N2CCC3(CC2)CC3)c1 [Compound 61]
stdout: 100 to 500 nM

stdin: State the recorded IC50 for this entry: O=C(Nc1ccc([N+](=O)[O-])c(N2CCC(F)(F)CC2)c1)c1ccc(S(=O)(=O)NCCO)cc1N1CCC2(CC1)CC2 [Compound 17]
stdout: ≤ 100 nM

stdin: State the recorded IC50 for this entry: CC1(F)CCN(c2cc(C(=O)Nc3cnc(S(=O)(=O)NCCO)cc3N3CCC4(CC3)CC4)ccc2[N+](=O)[O-])C1 (stereo not drawn) [Compound 216]
stdout: 100 to 500 nM

stdin: State the recorded IC50 for this entry: C[C@H](CO)NS(=O)(=O)c1ccc(NC(=O)c2ccc(OCF)c(N3CCC(F)(F)CC3)n2)c(N2CCC3(CC2)CC3)c1 [Compound 574]
stdout: 100 to 500 nM

stdin: State the recorded IC50 for this entry: O=C(Nc1ccc(OCF)c(N2CC3CC3C2)n1)c1ccc(NS(=O)(=O)CCO)cc1N1CCC2(CC1)CC2 (stereo not drawn) [Compound 426]
stdout: ≤ 100 nM

stdin: State the recorded IC50 for this entry: COc1ccc(C(=O)Nc2cnc(NS(=O)(=O)CCO)cc2N2CCC3(CC2)CC3)nc1N1CCC(F)(F)CC1 [Compound 353]
stdout: ≤ 100 nM

stdin: State the recorded IC50 for this entry: CC(C)(CO)Nc1cc(NC(=O)c2cnc(NS(=O)(=O)CCO)cc2N2CCC3(CC2)CC3)ccc1OCF [Compound 459]
stdout: ≤ 100 nM

stdin: State the recorded IC50 for this entry: O=C(Nc1cnc(NS(=O)(=O)CCO)cc1N1CCC2(CC1)CC2)c1ccc([N+](=O)[O-])c(N2CCC3(CC3)C2)c1 [Compound 198]
stdout: ≤ 100 nM

stdin: State the recorded IC50 for this entry: O=C(Nc1ccc(OCF)c(N2CC3CC3C2)n1)c1cnc(S(=O)(=O)NCCO)cc1N1CCC2(CC1)CC2 (stereo not drawn) [Compound 506]
stdout: ≤ 100 nM

stdin: State the recorded IC50 for this entry: C[C@H]1CN(c2cc(C(=O)Nc3ccc(S(=O)(=O)NCCO)cc3N3CCC4(CC3)CC4)ccc2OCF)CCO1 [Compound 531]
stdout: 100 to 500 nM

stdin: State the recorded IC50 for this entry: O=C(Nc1ccc(NS(=O)(=O)CCO)cc1N1CCC2(CC1)CC2)c1ccc([N+](=O)[O-])c(N2CCC3(CC3)C2)c1 [Compound 38]
stdout: ≤ 100 nM

stdin: State the recorded IC50 for this entry: O=C(Nc1ccc(OCF)c(N2CCC(F)(F)CC2)n1)c1cnc(NS(=O)(=O)CCO)cc1N1CCC2(CC1)CC2 [Compound 481]
stdout: ≤ 100 nM

stdin: State the recorded IC50 for this entry: CSc1ccc(NC(=O)c2ccc(NS(=O)(=O)[C@@H](C)CO)cc2N2CCC3(CC2)CC3)nc1N1CCC(F)(F)CC1 [Compound 605]
stdout: ≤ 100 nM

stdin: State the recorded IC50 for this entry: COc1ccc(C(=O)Nc2ccc(NS(=O)(=O)CCO)cc2N2CCC3(CC2)CC3)nc1N1CC(F)(F)C1 [Compound 324]
stdout: ≤ 100 nM

stdin: State the recorded IC50 for this entry: COc1ccc(C(=O)Nc2cnc(NS(=O)(=O)CCO)cc2N2CCC3(CC2)CC3)nc1N1CCC(F)CC1 [Compound 361]
stdout: ≤ 100 nM

stdin: State the recorded IC50 for this entry: O=C(Nc1cnc(NS(=O)(=O)CCO)cc1N1CCC2(CC1)CC2)c1ccc([N+](=O)[O-])c(OC2CCC2)n1 [Compound 231]
stdout: ≤ 100 nM
